Tested Target: T1, rat IL-21R expressed on cells (rat)
T1 construct: whole, on cells
Assay Comment: cell-based ELISA on CHO cells transiently expressing rat IL-21R; HRP anti-human IgG, A450
Reported EC50 (read off the curve) values are given for each entry in this list.

Asked: What does the data say about its EC50 (read off the curve)? Entry: AbQ (antibody, human IgG1, V domains shown, CDR3 graft, residue limits derived as for m29; also called VH3/VL2; VH3DM/VL2) VH: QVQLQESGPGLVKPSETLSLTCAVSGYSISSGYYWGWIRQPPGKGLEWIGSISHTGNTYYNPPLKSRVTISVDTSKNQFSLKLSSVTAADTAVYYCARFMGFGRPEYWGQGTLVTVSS VL: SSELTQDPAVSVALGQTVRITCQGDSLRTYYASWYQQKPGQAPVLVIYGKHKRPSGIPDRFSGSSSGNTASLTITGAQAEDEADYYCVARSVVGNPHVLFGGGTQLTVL
Given back: ~0.8 nM

Asked: Tell me the measured EC50 (read off the curve) of AbK (antibody, IgG1, V domains shown, As for AbA: IgG1/lambda, CDR3 graft, residue limits derived; also called VH3/VL3) VH: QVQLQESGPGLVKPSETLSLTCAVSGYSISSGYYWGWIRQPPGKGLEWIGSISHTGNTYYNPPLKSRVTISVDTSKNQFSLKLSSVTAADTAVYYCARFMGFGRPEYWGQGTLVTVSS VL: SSELTQDPAVSVALGQTVRITCQGDSLRTYYASWYQQKPGQAPVLVIYGKHKRPSGIPDRFSGSSSGNTASLTITGAQAEDEADYYCVSRAVVGNPHVLFGGGTQLTVL , please.
Given back: ~1 nM

Asked: # EC50 (read off the curve) lookup, item AbA (antibody, V domains shown, Human IgG1/lambda, transiently expressed; also called VHP/VL2) VH: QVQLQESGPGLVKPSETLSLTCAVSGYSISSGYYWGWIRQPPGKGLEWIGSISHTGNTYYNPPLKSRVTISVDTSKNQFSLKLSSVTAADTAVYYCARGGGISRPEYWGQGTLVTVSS VL: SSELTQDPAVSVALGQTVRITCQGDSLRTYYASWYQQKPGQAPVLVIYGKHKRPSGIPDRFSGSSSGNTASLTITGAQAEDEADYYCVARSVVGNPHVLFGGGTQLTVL
Given back: ~0.8 nM

Asked: # input binder: AbE (antibody, IgG1, V domains shown, As for AbA: IgG1/lambda, CDR3 graft, residue limits derived; also called VHP/VL14) VH: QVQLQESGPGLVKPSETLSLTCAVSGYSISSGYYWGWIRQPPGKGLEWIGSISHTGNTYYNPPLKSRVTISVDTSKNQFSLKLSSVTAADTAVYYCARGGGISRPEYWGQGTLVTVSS VL: SSELTQDPAVSVALGQTVRITCQGDSLRTYYASWYQQKPGQAPVLVIYGKHKRPSGIPDRFSGSSSGNTASLTITGAQAEDEADYYCMARSRKGNPHVLFGGGTQLTVL ; wanted: its EC50 (read off the curve)
Given back: ~0.8 nM

Asked: I am curious: what EC50 (read off the curve) value has been reported for AbB (antibody, IgG1, V domains shown, As for AbA: IgG1/lambda, CDR3 graft, residue limits derived; also called VHP/VL3) VH: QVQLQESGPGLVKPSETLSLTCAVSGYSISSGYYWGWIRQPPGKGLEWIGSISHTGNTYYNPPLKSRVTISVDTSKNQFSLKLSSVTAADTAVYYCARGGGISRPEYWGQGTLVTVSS VL: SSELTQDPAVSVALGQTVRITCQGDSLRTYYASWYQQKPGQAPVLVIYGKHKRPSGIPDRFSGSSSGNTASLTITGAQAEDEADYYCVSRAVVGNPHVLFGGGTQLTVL ?
Given back: ~2 nM
